The reported measurements were obtained from patent US20250163056A1.

test_target: Bovine cardiac myosin (Bos taurus (Bovine))
Sequence (Q9BE39 whole entry): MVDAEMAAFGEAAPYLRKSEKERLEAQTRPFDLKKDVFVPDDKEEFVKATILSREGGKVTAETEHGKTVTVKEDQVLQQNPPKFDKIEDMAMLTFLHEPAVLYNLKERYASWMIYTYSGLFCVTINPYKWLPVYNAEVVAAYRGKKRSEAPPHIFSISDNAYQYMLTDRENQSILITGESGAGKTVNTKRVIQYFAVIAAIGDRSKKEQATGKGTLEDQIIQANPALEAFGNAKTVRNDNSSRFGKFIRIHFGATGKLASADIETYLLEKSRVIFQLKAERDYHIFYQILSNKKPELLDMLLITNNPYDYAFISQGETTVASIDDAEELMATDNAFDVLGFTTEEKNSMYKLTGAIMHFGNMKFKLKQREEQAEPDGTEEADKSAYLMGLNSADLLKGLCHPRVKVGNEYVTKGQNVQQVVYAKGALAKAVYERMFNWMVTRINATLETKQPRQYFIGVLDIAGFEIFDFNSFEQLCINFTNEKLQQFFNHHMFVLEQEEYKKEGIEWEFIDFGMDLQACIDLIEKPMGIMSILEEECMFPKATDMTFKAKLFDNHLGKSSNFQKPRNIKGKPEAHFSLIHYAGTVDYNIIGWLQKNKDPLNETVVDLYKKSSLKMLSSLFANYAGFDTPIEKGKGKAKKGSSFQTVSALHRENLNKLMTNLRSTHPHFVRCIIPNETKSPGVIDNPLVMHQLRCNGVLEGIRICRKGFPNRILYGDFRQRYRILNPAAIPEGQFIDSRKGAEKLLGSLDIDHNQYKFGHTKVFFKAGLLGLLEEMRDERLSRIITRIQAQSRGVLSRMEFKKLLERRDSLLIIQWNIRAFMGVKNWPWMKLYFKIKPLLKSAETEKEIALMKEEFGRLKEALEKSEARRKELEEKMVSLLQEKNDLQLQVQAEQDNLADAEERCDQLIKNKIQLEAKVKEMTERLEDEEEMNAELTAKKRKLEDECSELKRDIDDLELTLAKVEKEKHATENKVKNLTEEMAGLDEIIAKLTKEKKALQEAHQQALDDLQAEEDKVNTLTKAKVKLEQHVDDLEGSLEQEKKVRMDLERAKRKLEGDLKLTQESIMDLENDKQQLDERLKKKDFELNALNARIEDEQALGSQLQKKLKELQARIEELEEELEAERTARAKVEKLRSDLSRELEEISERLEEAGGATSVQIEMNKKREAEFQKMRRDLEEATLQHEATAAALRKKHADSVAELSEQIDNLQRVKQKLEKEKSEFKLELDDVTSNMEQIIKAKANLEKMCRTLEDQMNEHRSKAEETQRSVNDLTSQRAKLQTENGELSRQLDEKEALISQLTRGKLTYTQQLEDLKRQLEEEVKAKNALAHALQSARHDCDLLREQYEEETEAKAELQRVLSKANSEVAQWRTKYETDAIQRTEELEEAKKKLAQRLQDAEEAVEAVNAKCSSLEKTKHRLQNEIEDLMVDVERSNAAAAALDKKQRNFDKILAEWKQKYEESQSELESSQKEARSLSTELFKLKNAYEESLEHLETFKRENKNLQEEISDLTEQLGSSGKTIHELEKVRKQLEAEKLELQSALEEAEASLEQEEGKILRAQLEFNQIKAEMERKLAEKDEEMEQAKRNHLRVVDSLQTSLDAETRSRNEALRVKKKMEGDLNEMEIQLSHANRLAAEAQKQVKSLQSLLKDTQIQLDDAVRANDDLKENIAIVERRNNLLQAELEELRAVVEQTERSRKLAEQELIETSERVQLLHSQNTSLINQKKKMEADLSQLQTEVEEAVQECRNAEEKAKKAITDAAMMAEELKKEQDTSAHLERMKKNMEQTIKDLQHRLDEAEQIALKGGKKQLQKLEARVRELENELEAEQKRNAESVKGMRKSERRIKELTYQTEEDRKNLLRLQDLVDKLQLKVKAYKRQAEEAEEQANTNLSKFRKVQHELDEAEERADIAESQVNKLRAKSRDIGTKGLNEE
Sequence (P85100 whole entry partner): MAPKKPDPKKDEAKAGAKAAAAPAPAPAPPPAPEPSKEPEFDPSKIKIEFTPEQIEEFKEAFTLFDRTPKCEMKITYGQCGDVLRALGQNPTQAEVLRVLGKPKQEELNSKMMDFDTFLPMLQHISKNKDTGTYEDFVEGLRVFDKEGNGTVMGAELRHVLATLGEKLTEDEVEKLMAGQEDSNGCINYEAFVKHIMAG
Sequence (Q3SZE5 whole entry partner): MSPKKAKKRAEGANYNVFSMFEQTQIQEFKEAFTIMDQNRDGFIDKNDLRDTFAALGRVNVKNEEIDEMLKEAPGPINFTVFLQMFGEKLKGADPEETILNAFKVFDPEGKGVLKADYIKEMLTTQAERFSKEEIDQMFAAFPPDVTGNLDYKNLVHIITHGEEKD
measurement_description: Cardiac muscle myosin II actin-activated ATPase assay (NADH-coupled)
Assay type: biochemical
setup_conditions: 300 nM cardiac myosin, 10 μM actin, 25° C.; read-out: CMMII KI
Could you mark each record rule met if its Ki falls strictly under 20 µM, and rule not met if it equals or exceeds it?

structure_smiles_string=Cc1cc2c(cc1F)C(=O)[C@]1(O)CCN(c3ccc4ccoc4c3)C1=N2 label="rule not met"
structure_smiles_string=Cc1cc2c(cc1C)C(=O)[C@]1(O)CCN(c3ccc4c(c3)CCCC4)C1=N2 label="rule not met"
structure_smiles_string=Cc1nc2cc(N3CC[C@@]4(O)C(=O)c5cc(C)c(C)cc5N=C34)ccc2o1 label="rule met"
structure_smiles_string=CCc1cc2c(s1)N=C1N(c3ccc(OC)cc3)CC[C@@]1(O)C2=O label="rule met"
structure_smiles_string=COc1ccc(N2CC[C@@]3(O)C(=O)c4cc(F)c(C)cc4N=C23)cc1 label="rule met"
structure_smiles_string=Cc1cc2c(cc1C)C(=O)[C@]1(O)CCN(c3ccc4nnsc4c3)C1=N2 label="rule not met"
structure_smiles_string=Cc1cc2c(cc1F)C(=O)[C@]1(O)CCN(c3ccc(C#N)cc3)C1=N2 label="rule met"
structure_smiles_string=CCc1nc2cc(N3CC[C@@]4(O)C(=O)c5cc(C)c(C)cc5N=C34)ccc2s1 label="rule met"
